System: JAK
Assay: Biochemical Kinase Assay Protocol (JAK)
Conditions: compound list; + = noted target activity, number of * = preference
recorded-metric: Activity Note: JAK

Solved entries (count: 5):
molecule=CCC(CC)Nc1nc(Nc2ccc3c(c2)C(C)(C)OB3O)ncc1C subject_of_test=JAK result_value=JAK+***
molecule=CCc1cc(Nc2ncc(C)c(Nc3ccccc3)n2)cc2c1B(O)OC2 subject_of_test=JAK result_value=JAK+***
molecule=CCC(CC)Nc1nc(Nc2cc(Cl)c3c(c2)C(C)(C)OB3O)ncc1C subject_of_test=JAK result_value=JAK+***
molecule=CCc1cc(Nc2ncc(C)c(NC(CC)CC)n2)cc2c1B(O)OC2 subject_of_test=JAK result_value=JAK+***
molecule=Cc1cnc(Nc2cc(Cl)c3c(c2)COB3O)nc1Nc1ccccc1 subject_of_test=JAK result_value=JAK+***

Note: attention shifts to another entry.
Input: Give its Activity Note: JAK value. Item: CC1OB(O)c2ccc(Nc3ncc(Cl)c(NC4CCCC4)n3)cc21 (stereo not drawn)
Output: JAK+***

---

System: JAK
Experiment: Biochemical Kinase Assay Protocol (JAK)
Settings: compound list; + = noted target activity, number of * = preference
recorded-metric: Activity Note: JAK

structure_smiles=OB1OCc2cc(Nc3ncc(Cl)c(NC4CCCC4)n3)cc(Cl)c21 subject_of_test=JAK recorded_metric="Activity Note: JAK" result_value=JAK+***
structure_smiles=Cc1cnc(Nc2cc(C)c3c(c2)C(C)(C)OB3O)nc1Nc1ccccc1 subject_of_test=JAK recorded_metric="Activity Note: JAK" result_value=JAK+***
structure_smiles=CCc1cc(N(c2ncc(C)c(NC(CC)CC)n2)S(=O)(=O)C(F)(F)F)cc2c1B(O)OC2 subject_of_test=JAK recorded_metric="Activity Note: JAK" result_value=JAK+*
structure_smiles=CCc1cc(Nc2ncc(Cl)c(NC3CCCC3)n2)cc2c1B(O)OC2 subject_of_test=JAK recorded_metric="Activity Note: JAK" result_value=JAK+***
structure_smiles=Cc1cnc(Nc2ccc3c(c2)B(O)OC3(C)C)nc1Nc1cccc(S(C)(=O)=O)c1 subject_of_test=JAK recorded_metric="Activity Note: JAK" result_value=JAK+**

Input: Entry Cc1cnc(Nc2ccc3c(c2)C(C)(C)OB3O)nc1Nc1ccccc1 has what Activity Note: JAK?
Output: JAK+***

Input: Cool, now CCCNc1nc(Nc2ccc3c(c2)B(O)OC3)ncc1I
Output: JAK+*

Input: Input Cc1cc(Nc2ncc(Cl)c(NC3CCCC3)n2)cc2c1B(O)OC2
Output: JAK+***

---

System: JAK
Experiment: Biochemical Kinase Assay Protocol (JAK)
Conditions: compound list; + = noted target activity, number of * = preference
recorded-metric: Activity Note: JAK

compound="Cc1cnc(Nc2ccc3c(c2)C(C)OB3O)nc1Nc1ccccc1 (stereo not drawn)" result_value=JAK+***
compound=CCC(CC)Nc1nc(Nc2cc3c(c(C(F)(F)F)c2)B(O)OC3)ncc1C result_value=JAK+***
compound=Cc1cnc(Nc2ccc3c(c2)B(O)OC3)nc1NC1CCN(C)CC1 result_value=JAK+*
compound=Cc1cnc(Nc2cc(C)c3c(c2)COB3O)nc1Nc1ccccc1 result_value=JAK+***
compound=Cc1cnc(Nc2cc(C)c3c(c2)CCOB3O)nc1NC1CCCC1 result_value=JAK+*

Input: Quick one: Activity Note: JAK for Cc1cnc(Nc2ccc3c(c2C)B(O)OC3)nc1Nc1cccc(S(C)(=O)=O)c1 ?
Output: JAK+*

Input: Next up: CCC(CC)Nc1nc(Nc2cc(C)c3c(c2)C(C)OB3O)ncc1C (stereo not drawn)
Output: JAK+***

Input: Could you do the same for Cc1cc(Nc2ncc(Cl)c(NC3CCCC3)n2)cc2c1B(O)OC2(C)C , please?
Output: JAK+***

Input: Next up: CCC(CC)Nc1nc(Nc2cc(C)c3c(c2)C(C)(C)OB3O)ncc1C
Output: JAK+***

Input: Request: Cc1cnc(Nc2ccc3c(c2)C(C)OB3O)nc1NC1CCCC1 (stereo not drawn)
Output: JAK+***
